target: Phospho-EGFR (Tyr1068) in H1975 cells (Homo sapiens, UniProt P00533, L858R/T790M); construct: host or cells: H1975; assay: HTRF pEGFR/total EGFR in H1975 cells; format: cell-based; conditions: ratio pEGFR/total EGFR, compound 3 hours
Sequence (P00533 25-1210 T790M/L858R): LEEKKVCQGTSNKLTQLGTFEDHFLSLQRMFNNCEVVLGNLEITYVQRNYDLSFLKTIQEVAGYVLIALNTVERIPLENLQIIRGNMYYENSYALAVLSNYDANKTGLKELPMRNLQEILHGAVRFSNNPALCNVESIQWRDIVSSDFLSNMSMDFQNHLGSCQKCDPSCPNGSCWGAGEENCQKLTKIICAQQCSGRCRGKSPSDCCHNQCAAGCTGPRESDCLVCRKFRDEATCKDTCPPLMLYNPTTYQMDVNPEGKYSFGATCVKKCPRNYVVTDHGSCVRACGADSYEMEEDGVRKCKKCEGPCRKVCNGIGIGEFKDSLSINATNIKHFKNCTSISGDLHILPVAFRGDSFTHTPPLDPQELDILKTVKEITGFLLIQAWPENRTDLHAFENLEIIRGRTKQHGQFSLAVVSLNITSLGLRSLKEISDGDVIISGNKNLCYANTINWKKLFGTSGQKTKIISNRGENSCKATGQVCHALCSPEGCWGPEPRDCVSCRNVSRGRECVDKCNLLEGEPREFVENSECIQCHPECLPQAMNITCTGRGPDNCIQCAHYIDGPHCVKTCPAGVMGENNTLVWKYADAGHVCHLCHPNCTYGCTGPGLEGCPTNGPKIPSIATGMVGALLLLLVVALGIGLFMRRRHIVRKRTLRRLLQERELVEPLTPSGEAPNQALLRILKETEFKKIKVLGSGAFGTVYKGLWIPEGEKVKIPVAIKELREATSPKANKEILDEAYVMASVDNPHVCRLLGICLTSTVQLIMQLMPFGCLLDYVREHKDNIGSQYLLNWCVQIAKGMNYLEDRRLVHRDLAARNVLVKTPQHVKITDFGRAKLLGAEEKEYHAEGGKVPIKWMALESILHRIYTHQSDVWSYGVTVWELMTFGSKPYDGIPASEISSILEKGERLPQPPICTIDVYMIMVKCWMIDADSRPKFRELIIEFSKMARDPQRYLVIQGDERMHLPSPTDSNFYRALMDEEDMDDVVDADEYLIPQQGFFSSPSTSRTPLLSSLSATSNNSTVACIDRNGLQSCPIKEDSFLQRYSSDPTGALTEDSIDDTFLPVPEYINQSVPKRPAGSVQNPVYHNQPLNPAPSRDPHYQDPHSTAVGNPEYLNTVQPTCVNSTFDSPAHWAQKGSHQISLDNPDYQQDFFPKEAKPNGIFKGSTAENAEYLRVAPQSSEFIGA
Listed below: IC50 values for each entry.

The cases that follow already have their IC50 on record.
molecule	IC50
C#Cc1cc(=O)n(-c2ccc(NC(=O)COC(C)=O)cc2)c2nc(Nc3ccccc3OC)ncc12	> 3000 nM
C#Cc1cc(=O)n(C)c2nc(Nc3ccc(N(C)CCN(C)C)cc3)ncc12	< 500 nM
C#Cc1cc(=O)n(-c2cccc(NC(=O)COC(C)=O)c2)c2nc(Nc3ccccc3OC)ncc12	> 3000 nM
C#Cc1cc(=O)n(-c2ccccc2)c2nc(Nc3ccc(N4CCNC5(CC5)C4)cc3)ncc12	< 500 nM
C#Cc1cc(=O)n(C2CCCC2)c2nc(Nc3cccc(N(C)[C@H]4CC[C@@H](CS(C)(=O)=O)CC4)c3)ncc12	> 3000 nM

Entry C#Cc1cc(=O)n(-c2ccccc2)c2nc(Nc3ccc(N4CCC(N5CC(CO)C5)CC4)cc3)ncc12 has what IC50?
< 500 nM

Entry C#Cc1cc(=O)n(-c2ccccc2)c2nc(Nc3ccc(N4CCC(N(C)C)CC4)cc3)ncc12 has what IC50?
< 500 nM

Entry C#Cc1cc(=O)n(C2CCCC2)c2nc(Nc3cccc(N(C)[C@H]4C[C@H](CS(C)(=O)=O)C4)c3)ncc12 has what IC50?
> 3000 nM

* * *

Target: Phospho-EGFR (Tyr1068) in H1975 cells (Homo sapiens, UniProt P00533, L858R/T790M)
Experiment: HTRF pEGFR/total EGFR in H1975 cells
Conditions: ratio pEGFR/total EGFR, compound 3 hours
Procedure: H1975 cells (ATCC CRL-5908) were plated at 20,000 cells per well in 96 well plates and placed at 37° C. 5% CO2. Once adhered (after 24 h) cells were treated with compounds dissolved in DMSO at a final concentration of 0.1% DMSO in media. Compounds were diluted in media then added to cells for 3 hours in duplicate. […] Cells were lysed on a plate shaker (2000 rpm) for 30 minutes at room temperature. pEGFR expression was monitored using the Cisbio Phospho-EGFR (Tyri068) cellular kit (64EG1PEH). […]
pIC50: −log10 of the molar value.
Listed below: pIC50 values for each entry.

The cases that follow already have their pIC50 on record.
smiles_str	pIC50
C#Cc1cc(=O)n(C2CCCC2)c2nc(Nc3cccc(CN4CC(CS(C)(=O)=O)C4)c3)ncc12	< 5.52
C#Cc1cc(=O)n(-c2ccc([N+](=O)[O-])cc2)c2nc(Nc3ccccc3OC)ncc12	< 5.52
C#Cc1cc(=O)n(-c2ccccc2)c2nc(Nc3ccc(N4CCNCC4)cc3)ncc12	> 6.30
C#Cc1cc(=O)n(C)c2nc(Nc3cccc(N(C)C(=O)CN(C)C)c3)ncc12	< 5.52
C#Cc1cc(=O)n(C)c2nc(Nc3cccc(N(C)CCN(C)C)c3)ncc12	> 6.30
C#Cc1cc(=O)n(-c2ccc(NC(=O)C=C)cc2)c2nc(Nc3ccccc3OC)ncc12	< 5.52

Entry C#Cc1cc(=O)n(C)c2nc(Nc3ccc(N4CCN(C)CC4)cc3)ncc12 has what pIC50?
> 6.30

Entry C#Cc1cc(=O)n2c3nc(ncc13)Nc1ccc(N3CCN(C)CC3)c(c1)OCCCCC2 has what pIC50?
> 6.30
